Items are presented alongside their recorded activity change, negative = activation.
- System: intestinal alkaline phosphatase [Mus musculus]
- EXPERIMENTAL PROTOCOL: mouse intestinal phosphatase enzyme activation – biochemical, luminescence, single concentration, confirmation (AID 434970)
- MEASUREMENT PARAMETERS: purified mouse IAP, CDP-Star luminescence, 30 min, at 10 µM; stronger effect = lower value
Out of some 11,000 compounds screened, about 310 (2.8%) were called active. This excerpt belongs to a sample that is enriched for actives.
Provide the reading as a plain figure in %.

Here's what some known entries look like.
>>> reading("CC(=O)Nc1ccc(SCC(=O)OCC(=O)NC(=O)NCc2ccco2)cc1")
10.7
>>> reading("Cc1ccc(C)c(N(C)C(=O)c2coc(=O)c3ccccc23)c1")
3.3
>>> reading("CCOC(=O)C1CCCN(C(=O)Cc2ccc(OC)c(OC)c2)C1 (stereo unspecified)")
-0.35
>>> reading("CCOC(=O)c1cccc(NC(=O)Nc2ccc(OCC)cc2)c1")
-87.6

Q: Item under review: `COc1cccc(-c2csc(N3CCN(C(=O)Nc4ccc(F)cc4)CC3)n2)c1` . Reported activity change, negative = activation?
Ans: -32.7

Q: Item under review: `COc1ccc(OC)c(NC2=NC3(CCCCC3)N=C(N)N2)c1` . Reported activity change, negative = activation?
Ans: -16.5

Q: Item under review: `COc1ccc(OC)c(NC2=NC3(CCCC3)N=C(N)N2)c1` . Reported activity change, negative = activation?
Ans: -21.9

Q: Item under review: `Cc1cc2c(ncn2C)c(NS(=O)(=O)c2cc(Cl)ccc2Cl)c1C` . Reported activity change, negative = activation?
Ans: 5.45

Q: Item under review: `CN1CCN(C(=O)c2ccc3c(c2)OCCO3)CC1` . Reported activity change, negative = activation?
Ans: 4.15

----------
- System: intestinal alkaline phosphatase [Mus musculus]
- EXPERIMENTAL PROTOCOL: mouse intestinal phosphatase enzyme activation – biochemical, luminescence, single concentration, confirmation (AID 434970)
- MEASUREMENT PARAMETERS: purified mouse IAP, CDP-Star luminescence, 30 min, at 10 µM; measured here: IAP activation factor, stronger effect = higher value
About 310 (2.8%) of roughly 11,000 compounds were called active. The entries come from a sample that favours actives as a whole.
Items are presented alongside their recorded activation factor.
Please reply with the number alone, leaving off any unit.

Here's what some known entries look like.
>>> reading("CCN(CC)CCNC(=O)C1c2ccccc2C(=O)N(CCOC)C1c1ccc(F)cc1 (configuration not stated)")
0.972
>>> reading("CCCCNC(=O)C1CCN(C/C(C)=C/c2ccccc2)CC1")
1.02
>>> reading("CC1CCCC(C(=O)O)N1C(=O)CCS (configuration not stated)")
0.988

Q: Item under review: `COC(=O)c1c(NC(=O)c2ccccc2)sc(Cc2ccccc2)c1C` . Reported activation factor?
Ans: 1

Q: Item under review: O=C(CCCOc1ccccc1)Nc1nnc(C2CCCO2)s1 (configuration not stated) . Reported activation factor?
Ans: 1.01

Q: Item under review: `Cc1ccc(-c2noc(CN3CCC(C(N)=O)CC3)n2)cc1` . Reported activation factor?
Ans: 0.997

Q: Item under review: `CN(C)C(=O)CCc1ccc2c3c([nH]c2c1)[C@]1(C)[C@@H](C(=O)N2CCOCC2)C[C@H](CC(=O)NCCc2ccccn2)C(=O)N1CC3` . Reported activation factor?
Ans: 1.02

Q: Item under review: `CC(=O)Nc1ccc(SCC(=O)OCC(=O)NC(=O)NCc2ccco2)cc1` . Reported activation factor?
Ans: 0.893

Q: Item under review: `CCn1ncc(CN2CCC(C(=O)Nc3cccc(-c4cccc(F)c4)c3)CC2)c1C` . Reported activation factor?
Ans: 2.83

Q: Item under review: `O=C(Nc1ccc(F)cc1)Nc1csc2ccccc12` . Reported activation factor?
Ans: 1.94

Q: Item under review: CCCCCCN(C(=O)CCCN1C(=O)NC(c2ccc(-c3ccccc3)cc2)C(C(=O)OCc2ccccc2)=C1C)C(C)C(=O)NCCCC (configuration not stated) . Reported activation factor?
Ans: 1.42

Q: Item under review: `CCNc1nc(NC(C)(C)C)nc(SC(C(C)=O)C(C)=O)n1` . Reported activation factor?
Ans: 1.04

----------
- Tested on: intestinal alkaline phosphatase [Mus musculus]
- EXPERIMENTAL PROTOCOL: mouse intestinal phosphatase enzyme activation – biochemical, luminescence, single concentration, confirmation (AID 434970)
- MEASUREMENT PARAMETERS: purified mouse IAP, CDP-Star luminescence, 30 min, at 10 µM; measured here: IAP activation factor, stronger effect = higher value
Among all 11,000 compounds or so, about 310 (2.8%) were called active. Only a selection was taken, and actives are over-represented in it overall.
PROPERTY LABEL: activation factor
Please reply with the number alone, leaving off any unit.

Here's what some known entries look like.
>>> reading("O=C(COc1c(F)c(F)cc(F)c1F)NC(=O)NC1CCCC1")
1.08
>>> reading("O=C(CSc1nnc(-c2cccs2)n1-c1cccc(Cl)c1)c1cccc2c1OCCO2")
0.901

# next compound below
Q: Item under review: COc1ccccc1C(CC(=O)Nc1ccc(C)c(C)c1)c1ccc(OC(C)C)cc1 (stereo not drawn) . Reported activation factor?
Ans: 2.06

----------
Items are presented alongside their recorded activity change, negative = activation.
- Tested on: intestinal alkaline phosphatase [Mus musculus]
- EXPERIMENTAL PROTOCOL: mouse intestinal phosphatase enzyme activation – biochemical, luminescence, single concentration, confirmation (AID 434970)
- MEASUREMENT PARAMETERS: purified mouse IAP, CDP-Star luminescence, 30 min, at 10 µM; stronger effect = lower value
Hit rate of the full screen: of about 11,000 compounds, about 310 (2.8%) were called active. Only a selection was taken, and actives are over-represented in it overall.
Provide the reading as a plain figure in %.

>>> reading("CCC(C)NCCOCCOc1ccc(F)cc1 (stereo unspecified)")
-3.25
>>> reading("CN(C)C(=O)CCc1ccc2c3c([nH]c2c1)[C@]1(C)[C@@H](C(=O)N2CCOCC2)C[C@H](CC(=O)NCCc2ccccn2)C(=O)N1CC3")
-2.25

Q: For intestinal alkaline phosphatase [Mus musculus], provide activity change, negative = activation of O=C(NCc1ccc2c(c1)OCO2)C1CCCN1C(=O)Nc1cccc(Cl)c1 (stereo unspecified) please.
Ans: -2.95

Q: For intestinal alkaline phosphatase [Mus musculus], provide activity change, negative = activation of `COC(=O)c1ccc(NC(=O)Nc2cccc(F)c2)cc1` please.
Ans: -97.4

Q: For intestinal alkaline phosphatase [Mus musculus], provide activity change, negative = activation of `O=C1NC2(CCCCC2)C(=O)N1c1ccccc1` please.
Ans: -7.85

Q: For intestinal alkaline phosphatase [Mus musculus], provide activity change, negative = activation of `Cc1ccc(C)c(CN2CCC(CNC(=O)Nc3ccc(F)c(Cl)c3)CC2)c1` please.
Ans: -97.9

----------
- Tested on: intestinal alkaline phosphatase [Mus musculus]
- EXPERIMENTAL PROTOCOL: mouse intestinal phosphatase enzyme activation – biochemical, luminescence, single concentration, confirmation (AID 434970)
- MEASUREMENT PARAMETERS: purified mouse IAP, CDP-Star luminescence, 30 min, at 10 µM; measured here: IAP activation factor, stronger effect = higher value
In all, about 11,000 compounds went through this assay and about 310 (2.8%) were called active. Only a selection was taken, and actives are over-represented in it overall.
PROPERTY LABEL: activation factor
Please reply with the number alone, leaving off any unit.

Here's what some known entries look like.
>>> reading("Cc1ccc(NC(=O)Nc2ccc(F)c(Cl)c2)cc1")
1.35
>>> reading("Cc1cc(C)cc(NC(=S)NCc2ccc3c(c2)OCO3)c1")
1.81
>>> reading("Cc1ccc(C(=O)NC(Cc2ccc(C(C)(C)C)cc2)C(=O)O)cc1 (configuration not stated)")
1.03

Q: Item under review: O=C(NCC1CC1(Cl)Cl)Nc1ccc(Cl)c(Cl)c1 (configuration not stated) . Reported activation factor?
Ans: 2.53

----------
- Tested on: intestinal alkaline phosphatase [Mus musculus]
- EXPERIMENTAL PROTOCOL: mouse intestinal phosphatase enzyme activation – biochemical, luminescence, single concentration, confirmation (AID 434970)
- MEASUREMENT PARAMETERS: purified mouse IAP, CDP-Star luminescence, 30 min, at 10 µM; measured here: IAP activation factor, stronger effect = higher value
In all, about 11,000 compounds went through this assay and about 310 (2.8%) were called active. This is one part of a sample in which actives are shown more often than they occur.
Lab note: anything with activation factor at or over 1 counts as condition met; the rest go in condition not met.

>>> group_label("C#CCOCCOCCOCCNc1nc(N2CCOCC2)nc(N2CCN(C(=O)CCCCCCCCCCNC(=O)[C@H]([C@@H](C)CC)n3cc(CCCCN=C(N)N)nn3)CC2)n1")
"condition met"
>>> group_label("CCN(CC)CCNC(=O)Cn1nc(-c2ccccc2)c2ccccc2c1=O")
"condition not met"
>>> group_label("Cc1csc(SCc2ccccc2C(=O)O)n1")
"condition not met"
>>> group_label("CCCCSCCCNC(=O)Nc1ccc(CC)cc1")
"condition met"
>>> group_label("CCCCSCCCNC(=O)Nc1ccc(C)c(C)c1")
"condition met"

Q: Has `Cc1ccc(C)c(CN2CCC(CNC(=O)Nc3cccc(Cl)c3C)CC2)c1` a recorded activation factor greater than or equal to 1?
Ans: condition met
